molecular target: T1, Anti-CD28 Fab (SEQ ID NOs: 696, 697); test: phage ELISA; biotinylated anti-CD28 Fab on neutravidin plates, bound phage detected with anti-M13 HRP
T1 construct: Biotinylated and captured on neutravidin coated plates in the phage ELISA
T1 sequence (VH, as listed by the source, chain 1 of 2): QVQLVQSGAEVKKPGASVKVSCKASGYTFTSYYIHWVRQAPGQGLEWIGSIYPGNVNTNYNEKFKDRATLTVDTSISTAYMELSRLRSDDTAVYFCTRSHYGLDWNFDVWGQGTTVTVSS
T1 sequence (VL, as listed by the source, chain 2 of 2): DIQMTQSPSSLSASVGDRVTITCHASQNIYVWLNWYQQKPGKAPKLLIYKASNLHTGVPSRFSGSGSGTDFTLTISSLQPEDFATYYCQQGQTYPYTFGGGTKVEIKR
endpointLabel: Phage binding ELISA, Anti-CD28 Fab signal

binder	measurement
YCEGHTMEYMWKCL [Phage-542]	2.31
YCAGHSPEHMWKCL [Phage-550]	2.3
YCDGHAPEYMAKCL [Phage-549]	2.3
YCEGHSEEYISKCL [Phage-551]	2.3
YCDGHSPEYILKCL [Phage-545]	2.31
YCDGHSPQYIEKCL [Phage-544]	2.31
YCEGHLPLYMWKCL [Phage-548]	2.3
YCEGHSPEYMSKCL [Phage-541]	2.31
YCAGHLPEYMPHCI [Phage-543]	2.31
YCDGHTLEYMWKCL [Phage-547]	2.31
YCDGHLDEYMAKCL [Phage-546]	2.31
YCDGHEPQYMLKCL [Phage-540]	2.32
YCDGHLPIYMAKCL [Phage-552]	2.3

Data origin: patent US20260242478A1
